- Measurement description: small-molecule microarray binders of probe aDKK1, primary screen, biochemical, biotinylated probe, 635/667 nm fluorescence (AID 1099);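 also: score merges 667nm spot fluorescence with signal to noise across triplicate slides; reference of the scale not given here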
- Particulars: higher = more signal
Recorded metric: composite z-score
Give the figure by itself; no unit, no explanation.

{"Molecule": "COc1ccc([Si](C)(C)[C@H]2[C@H](CCO)O[C@@]3(C(=O)N(Cc4ccc(N5C(=O)COc6ccccc65)cc4)c4ccccc43)[C@@H]2C)cc1", "composite z-score": -0.0813}
{"Molecule": "CC(C)[C@@H](CO)NC(=O)[C@H]1[C@@H](c2ccccc2)N(c2ccccc2)O[C@@H]1C", "composite z-score": -0.343}
{"Molecule": "C=CCN1C(=O)[C@@]2(O[C@@H](CCO)[C@H]([Si](C)(C)c3ccc(OC)cc3)[C@H]2C)c2cc(NC(=O)c3ccc(OC)cc3)ccc21", "composite z-score": -0.138}
{"Molecule": "CN1C(=O)C2C=CC(C(O)C3CC=CCC3)N(NC(=O)OC(C)(C)C)C2C1=O (configuration not stated)", "composite z-score": 0.0347}
{"Molecule": "C=CCNC(=O)[C@H]1[C@@H]2C(=O)O[C@@H](c3ccccc3)[C@@H](c3ccccc3)N2[C@@H](c2ccccc2OCCO)[C@]12C(=O)Nc1ccc(C#CC3=CCCCC3)cc12", "composite z-score": -0.22}

// query composite z-score value for entry COCC(=C=CC[C@@H](O)c1ccccc1OCCO)C[C@@H](O)c1cc(Cl)cc(Cl)c1O
-0.174

Query: composite z-score; subject: CCCCCN1CC=CC23O[C@@H]4/C=C\CCCOC(=O)C4[C@H]2C(=O)N(C(CO)C(C)C)[C@@H]3C1=O (some centres not stated)
-0.248

---

- Measurement description: small-molecule microarray binders of probe aNog, primary screen, biochemical, biotinylated probe, 635/667 nm fluorescence (AID 1115);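 also: probe is biotinylated aNog protein used at 0.15 µg/mL for 1 h at 4 C; z-score combines 667 nm fluorescence of each spot with its signal to noise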
- Particulars: higher = more signal
Note to self: class = bucket of composite z-score, per bottom end: < -0.2; midrange: ≥ -0.2 and < 1; top end: ≥ 1

Please review the entries below; each comes with its answer.
{"Compound": "CCCCC(=C=CC[C@@H](O)c1ccccc1OCCO)CCO", "Group": "midrange"}
{"Compound": "COc1ccc(C(=O)Nc2ccc(CN3C(=O)[C@@]4(O[C@@H](CCO)[C@H]([Si](C)(C)c5ccc(OC)cc5)[C@H]4C)c4ccccc43)cc2)cc1", "Group": "midrange"}
{"Compound": "CN(C)C(=O)[C@@]1(Cc2ccccc2)N=C(c2ccc(OCCCO)cc2)O[C@H]1c1ccccc1N=[N+]=[N-]", "Group": "bottom end"}
{"Compound": "COCCOC(=O)N1C(=O)[C@@]2(c3cc(C#Cc4ccc(OC)cc4)ccc31)[C@H](C(N)=O)[C@H]1C(=O)O[C@H](c3ccccc3)[C@H](c3ccccc3)N1[C@@H]2c1ccccc1OCCO", "Group": "midrange"}
{"Compound": "CC(C)(C)OC(=O)CC[C@@]1(C(=O)NCC(O)CO)N=C(c2ccc(OCCCO)cc2)O[C@@H]1c1ccccc1N=[N+]=[N-] (stereo partly specified)", "Group": "top end"}
{"Compound": "CN1C(=O)C2C=CC(C(O)c3ccc(-c4ccccc4)s3)N(N(c3ccccc3)c3ccccc3)C2C1=O (stereo unspecified)", "Group": "top end"}
{"Compound": "CCCCCN1CC=CC23O[C@@H]4/C=C\\CCCOC(=O)C4[C@H]2C(=O)N(C(CO)C(C)C)[C@@H]3C1=O (stereo partly specified)", "Group": "midrange"}
{"Compound": "CN(C)C(=O)[C@@]1(Cc2ccccc2CN=[N+]=[N-])N=C(c2ccc(OCCCO)cc2)O[C@H]1c1ccccc1", "Group": "top end"}
{"Compound": "[N-]=[N+]=NCc1ccccc1C[C@]1(C(=O)O)N=C(c2ccc(OCCCO)cc2)O[C@H]1c1ccccc1N=[N+]=[N-]", "Group": "top end"}
{"Compound": "O=C(C1N=C(c2ccc(OCCCO)cc2)N(c2ccccc2)O1)N1CCOCC1 (stereo unspecified)", "Group": "bottom end"}

Let's switch to this compound now.
Place this compound in its band: CCCCCCC#C[Si](O[C@H](c1ccccc1)c1cn([C@H](CO)Cc2ccccc2)nn1)(C(C)C)C(C)C
bottom end
